# SYSTEM_TESTED: dNCS-1 (Drosophila melanogaster)
# Construct: made in house; host or cells: E. coli
# Sequence (Q9VWX8 whole entry): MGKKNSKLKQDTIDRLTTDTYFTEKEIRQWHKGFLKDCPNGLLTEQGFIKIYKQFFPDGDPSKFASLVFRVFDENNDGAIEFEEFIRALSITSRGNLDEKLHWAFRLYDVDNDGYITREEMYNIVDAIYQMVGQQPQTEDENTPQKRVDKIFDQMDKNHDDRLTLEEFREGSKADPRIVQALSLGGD
# PROTOCOL_NOTES: Tryptophan emission fluorescence of dNCS-1 at increasing ligand concentrations (apparent Kd)
# Format: binding
# MEASUREMENT_PARAMETERS: ligand 8 μM
REPORTED_ENDPOINT: Normalized Fluorescence I0-I/I0
Lab note: record the figure alone, no unit after it.

O=C(NN=Cc1ccc([N+](=O)[O-])c(O)c1)C(O)c1ccccc1 (mixture of isomers) [3d]: 0.187
O=C(Cc1c[nH]c2ccccc12)NN=Cc1ccc([N+](=O)[O-])c(O)c1 (mixture of isomers) [3b]: 0.164
CN(C)CCCN1c2ccccc2Sc2ccc(Cl)cc21 [CPZ, Chlorpromazine, reference compound]: 0.448

With those in mind, consider the next compound.
Query: Quick check: Normalized Fluorescence I0-I/I0 of O=C(N/N=C/c1ccc([N+](=O)[O-])c(O)c1)c1ccco1 [3a] ?
Reply: 0.262

These data points were gathered from paper PMC6595003.
